Can you tell me protein stability index for the items I'm about to list?
B1: ZNF263 (parent)
chain: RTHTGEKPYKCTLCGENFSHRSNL

variants of: B1; assay: protein stability index of a GFP-peptide fusion (GPS, HEK-293T) (PSI 1-6); higher = more stable; settings: c terminus: a fixed tail appended;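 also: lentivirally expressed fusions sorted by FACS into six bins by GFP to DsRed ratio, PSI derived from sequencing read proportions per bin multiplied by bin number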
Form field (numeric): enter value without unit.

*Q* Consider the variant RTHTGEKPYKCTLCGENFKHRSNL [S19K] and give its measured protein stability index.
*A* 1.66

*Q* Endpoint output: protein stability index of RTHTGEKPYKLTLCGENFSHRSNL [C11L] . Value?
*A* 2.9

*Q* Given the variant RTHTGEKPYKCTLCGENFSHRSSL [N23S] , what is its reported protein stability index?
*A* 2.05

*Q* Look up protein stability index for this variant: RTHCGEKPYKCTLCGENFSHRSNL [T4C]
*A* 2.04

*Q* Query: protein stability index; subject: RTHTGEKPYKCTLVGENFSHRSNL [C14V]
*A* 3.3

*Q* Consider the variant RTHTGEKPYKCTLCGESFSHRSNL [N17S] and give its measured protein stability index.
*A* 2.02

*Q* Fill in: protein stability index of RTHTGEKPYKCALCGENFSHRSNL [T12A] is ___
*A* 2.07

*Q* Would you kindly share the measured protein stability index for RTHTGEKPYKCTLMGENFSHRSNL [C14M] ?
*A* 3.43

*Q* Please give the measured protein stability index for this variant: RTHTGEKPYKCTLCGENFSHRSNQ [L24Q]
*A* 2.33

*Q* Consider the variant shown here: RTHTGEKPYKCTLCGEHFSHRSNL [N17H] What is its recorded protein stability index?
*A* 2.15

*Q* Any idea what its protein stability index is? The variant is NTHTGEKPYKCTLCGENFSHRSNL [R1N]
*A* 1.69

*Q* Bench note: what protein stability index did YTHTGEKPYKCTLCGENFSHRSNL [R1Y] show?
*A* 2.17

*Q* Sample RTHTGEKPYKCTECGENFSHRSNL [L13E] — what was its protein stability index?
*A* 3.3

*Q* Please report the recorded protein stability index for RTHTAEKPYKCTLCGENFSHRSNL [G5A] .
*A* 1.59

*Q* Fill blank: measured protein stability index of the variant RTRTGEKPYKCTLCGENFSHRSNL [H3R] is ____.
*A* 2.58

*Q* Which measured protein stability index value corresponds to RTHTGEKPYKYTLCGENFSHRSNL [C11Y] ?
*A* 2.42

*Q* What does the data say about its protein stability index? Entry: RTHTGEKPYKCTLCGENMSHRSNL [F18M]
*A* 1.82
